system: MALME-3M multicell spheroids, viability; assay: Anticancer human tumor MALME-3M cell line growth inhibition [TAK]; details: second compound 9.49 µM; first compound 0.0316 µM; stronger effect = lower value;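 further: spheroids exposed to drugs for seven days before readout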;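 on viability, T/C: 100% = DMSO vehicle control viability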
measured parameter: viability, T/C

# compound, measured parameter, observed result
rows = [
    ("CC(C)CC(NC(=O)CNC(=O)c1cc(Cl)ccc1Cl)B1OC(=O)CC(CC(=O)O)(C(=O)O)O1 (stereo not drawn) + CC(C)NCC(C(=O)N1CCN(c2ncnc3c2C(C)CC3O)CC1)c1ccc(Cl)cc1", "viability, T/C", "5.18%"),
    ("CC(C)(C)c1nc(-c2cccc(NS(=O)(=O)c3c(F)cccc3F)c2F)c(-c2ccnc(N)n2)s1 + CC(C)NCC(C(=O)N1CCN(c2ncnc3c2C(C)CC3O)CC1)c1ccc(Cl)cc1", "viability, T/C", "23%"),
    ("COc1c(OCCCN2CCOCC2)ccc2c3n(c(=NC(=O)c4cnc(N)nc4)nc12)CCN3 + CC(C)NCC(C(=O)N1CCN(c2ncnc3c2C(C)CC3O)CC1)c1ccc(Cl)cc1", "viability, T/C", "54.2%"),
]

###

system: MALME-3M multicell spheroids, viability; test: Anticancer human tumor MALME-3M cell line growth inhibition [TAK]; details: curve of first compound; second compound 0.3 µM;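 further: spheroids exposed to drugs for seven days before readout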
pIC50: −log10 of the molar value.
Catalogue of pIC50 readings, one per entry.
measured parameter: pIC50

# molecule, measured parameter, sign, observed result
data = [
    ("Cn1cnc2c(F)c(Nc3ccc(Br)cc3Cl)c(C(=O)NOCCO)cc21 + CC(C)NCC(C(=O)N1CCN(c2ncnc3c2C(C)CC3O)CC1)c1ccc(Cl)cc1", "pIC50", "=", 7.39),
    ("CC(=O)Nc1cccc(-n2c(=O)n(C3CC3)c(=O)c3c(Nc4ccc(I)cc4F)n(C)c(=O)c(C)c32)c1 + CC(C)NCC(C(=O)N1CCN(c2ncnc3c2C(C)CC3O)CC1)c1ccc(Cl)cc1", "pIC50", "=", 9.37),
    ("COC1CC2CCC(C)C(O)(O2)C(=O)C(=O)N2CCCCC2C(=O)OC(C(C)CC2CCC(OCCO)C(OC)C2)CC(=O)C(C)C=C(C)C(O)C(OC)C(=O)C(C)CC(C)C=CC=CC=C1C (stereo not given) + CC(C)NCC(C(=O)N1CCN(c2ncnc3c2C(C)CC3O)CC1)c1ccc(Cl)cc1", "pIC50", "<", 7.00),
    ("Cc1nc(NC(=O)N2CCCC2C(N)=O)sc1-c1ccnc(C(C)(C)C(F)(F)F)c1 (stereo not given) + CC(C)NCC(C(=O)N1CCN(c2ncnc3c2C(C)CC3O)CC1)c1ccc(Cl)cc1", "pIC50", "<", 5.00),
    ("CC(C)CC(NC(=O)CNC(=O)c1cc(Cl)ccc1Cl)B1OC(=O)CC(CC(=O)O)(C(=O)O)O1 (stereo not given) + CC(C)NCC(C(=O)N1CCN(c2ncnc3c2C(C)CC3O)CC1)c1ccc(Cl)cc1", "pIC50", "=", 7.77),
]

###

tested on: MALME-3M multicell spheroids, viability; experiment: Anticancer human tumor MALME-3M cell line growth inhibition [TAK]; conditions: second compound 30 µM; first compound 0.01 µM; active = viability on the fitted dose curve at most 10% of control; inactive = the rest;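 further: spheroids exposed to drugs for seven days before readout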
Classes used: True = active, False = inactive

# compound, qualitative label
rows = [
    ("CC(C)CC(NC(=O)CNC(=O)c1cc(Cl)ccc1Cl)B1OC(=O)CC(CC(=O)O)(C(=O)O)O1 (stereo not given) + CC(C)NCC(C(=O)N1CCN(c2ncnc3c2C(C)CC3O)CC1)c1ccc(Cl)cc1", "False"),
    ("CC(C)n1nc(-c2ccc3oc(N)nc3c2)c2c(N)ncnc21 + CC(C)NCC(C(=O)N1CCN(c2ncnc3c2C(C)CC3O)CC1)c1ccc(Cl)cc1", "False"),
    ("COC1CC2CCC(C)C(O)(O2)C(=O)C(=O)N2CCCCC2C(=O)OC(C(C)CC2CCC(OCCO)C(OC)C2)CC(=O)C(C)C=C(C)C(O)C(OC)C(=O)C(C)CC(C)C=CC=CC=C1C (stereo not given) + CC(C)NCC(C(=O)N1CCN(c2ncnc3c2C(C)CC3O)CC1)c1ccc(Cl)cc1", "False"),
    ("COc1c(OCCCN2CCOCC2)ccc2c3n(c(=NC(=O)c4cnc(N)nc4)nc12)CCN3 + CC(C)NCC(C(=O)N1CCN(c2ncnc3c2C(C)CC3O)CC1)c1ccc(Cl)cc1", "False"),
    ("CC(C)CC(NC(=O)C(Cc1ccccc1)NC(=O)c1cnccn1)B(O)O (stereo not given) + CC(C)NCC(C(=O)N1CCN(c2ncnc3c2C(C)CC3O)CC1)c1ccc(Cl)cc1", "True"),
]
